Each recorded value in this set is attributed to patent US8748480B2.

Target: Gβ1γ2 Asp246Ser (Rattus norvegicus, UniProt P54311, D246S)
Construct: made in house; host or cells: Sf9 insect cells (baculovirus)
Sequence (P54311 whole entry D246S): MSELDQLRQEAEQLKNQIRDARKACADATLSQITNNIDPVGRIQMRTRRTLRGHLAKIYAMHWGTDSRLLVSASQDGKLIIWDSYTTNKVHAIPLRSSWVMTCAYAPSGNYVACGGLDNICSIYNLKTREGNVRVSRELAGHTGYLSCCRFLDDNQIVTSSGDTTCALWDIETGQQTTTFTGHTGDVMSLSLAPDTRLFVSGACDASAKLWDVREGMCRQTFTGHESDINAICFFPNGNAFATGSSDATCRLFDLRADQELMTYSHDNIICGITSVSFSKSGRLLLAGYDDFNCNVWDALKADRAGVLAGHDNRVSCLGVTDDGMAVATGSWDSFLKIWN
Sequence (P63212 2-68 partner limits assumed): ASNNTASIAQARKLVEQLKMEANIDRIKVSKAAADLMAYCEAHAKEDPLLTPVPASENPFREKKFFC
Experiment: Phage ELISA, b-βγ mutant Asp246Ser
Format: binding
Conditions: Asp246 mutant (Asp246Ser), N-Terminal Interface; mean ± SD

{"sequence input": "SCEKRLGVRSCT [C5]", "% of Wild-Type Signal, Asp246": "56.3 ± 4.1%"}
{"sequence input": "LCSKAYLLLGQTC [2F]", "% of Wild-Type Signal, Asp246": "0.6 ± 2.5%"}
{"sequence input": "SCKRTKAQILLAPCT [C1]", "% of Wild-Type Signal, Asp246": "2.3 ± 3.0%"}
{"sequence input": "WCPPKAMTQLGIKAC [C14]", "% of Wild-Type Signal, Asp246": "6.3 ± 13.9%"}
{"sequence input": "SCGHGLKVQSTIGACA [3C]", "% of Wild-Type Signal, Asp246": "2.0 ± 2.7%"}
{"sequence input": "SIGKALFILGYPDYD [3.14]", "% of Wild-Type Signal, Asp246": "66.5 ± 7.5%"}
{"sequence input": "SCEKRYGIEFCT [C4]", "% of Wild-Type Signal, Asp246": "35.8 ± 7.4%"}
{"sequence input": "WCPPKLEQWYDGCA [C2]", "% of Wild-Type Signal, Asp246": "5.9 ± 5.7%"}
